# protocol_notes: Metabolic stability in mouse liver microsomes assessed as half life
# Format: ADME, Microsome
measured_metric: half-life (h)
Write the value in h as a bare number.

# return recorded half-life for entry `Cc1noc(C)c1-c1cc(F)c(Nc2ccccc2C(=O)O)c(Cl)c1` 1.76
